Measured target: 1-phosphatidylinositol 4,5-bisphosphate phosphodiesterase gamma-1 (Homo sapiens)
Test protocol: blockers of human PLCG1 activity – biochemical, fluorescence, purified enzyme, primary screen (AID 720700)
Reported conditions: purified PLC-gamma1, fluorogenic substrate, at 12.2 µM, stronger effect = higher value
About 3,100 (0.84%) of roughly 370,000 compounds were called active. The full list was thinned out, with actives kept by preference.
inhibition by entry:
Answer in %, number only, no unit symbol.

Examples from the recorded data:
[
  {
    "Compound": "COC(=O)C1=C(c2ccc(-c3ccccc3)c(F)c2)C[C@@H]2CC[C@H]1N2C(=O)NCc1ccc(F)cc1",
    "Val": 11.8
  },
  {
    "Compound": "CCOC(=O)C(O)(c1ccc(N)c(OC)c1)C(F)(F)F (stereo unspecified)",
    "Val": 0.45
  },
  {
    "Compound": "COC(=O)C1=C(c2cccc(OCc3ccccc3)c2)C[C@@H]2CC[C@H]1N2C(=O)NCc1ccc(Br)cc1",
    "Val": 0.93
  },
  {
    "Compound": "COC(=O)C1=C(c2ccc(F)cc2OCc2ccccc2)C[C@@H]2CC[C@H]1N2C(=O)NCc1ccc(Cl)cc1",
    "Val": 4.35
  },
  {
    "Compound": "CCN(CC)P(=O)(Oc1cccc(C)c1)N(CC)CC",
    "Val": 7.26
  }
]

Now for the compound whose inhibition we want.
State inhibition on 1-phosphatidylinositol 4,5-bisphosphate phosphodiesterase gamma-1 (Homo sapiens). Entry: "CC(=O)N1CN2CN(C(C)=O)CC(C(=O)c3ccc(Br)cc3)(C2)C1"
11.9
